target system: 5-hydroxytryptamine receptor 2C (Homo sapiens)
assay: Intrinsic efficacy against 5-hydroxytryptamine 2C receptor
Given measured Intrinsic efficacy, output yes if it is greater than or equal to 80% and no if not.

Before answering, review these 4 worked examples.
{"compound": "c1ccc2c3c([nH]c2c1)CCNCC3", "cat": "no"}
{"compound": "c1cc2c3c(c1)c1c(n3CCO2)CCNCC1", "cat": "yes"}
{"compound": "Cn1c2c(c3ccccc31)CCNCC2 [PNU-22394]", "cat": "yes"}
{"compound": "CCN1CCc2cc3ccccc3n2CC1", "cat": "no"}

Is it the case that CN1CCc2cc3ccccc3n2CC1 has Intrinsic efficacy reaching or exceeding 80%? no

* * *

Here, each record is paired with measured pKi data.
target system: 5-hydroxytryptamine receptor 2C (Homo sapiens, UniProt P28335)
Sequence (P28335 whole entry): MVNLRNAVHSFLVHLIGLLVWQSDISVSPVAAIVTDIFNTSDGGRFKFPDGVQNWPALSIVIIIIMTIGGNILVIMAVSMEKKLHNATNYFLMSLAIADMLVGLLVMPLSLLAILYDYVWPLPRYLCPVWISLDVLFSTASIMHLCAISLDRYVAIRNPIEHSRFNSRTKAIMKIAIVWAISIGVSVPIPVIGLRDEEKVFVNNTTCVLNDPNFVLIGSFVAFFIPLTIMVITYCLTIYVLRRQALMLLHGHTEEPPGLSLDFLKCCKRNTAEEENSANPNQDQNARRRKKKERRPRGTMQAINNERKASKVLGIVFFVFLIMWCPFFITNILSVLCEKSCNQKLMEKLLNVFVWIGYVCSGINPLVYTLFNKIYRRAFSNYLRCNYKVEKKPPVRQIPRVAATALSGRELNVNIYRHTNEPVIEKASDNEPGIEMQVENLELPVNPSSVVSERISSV
assay: Binding affinity against 5-hydroxytryptamine 2C receptor using [125I]DOI radioligand.
Expect pKi as a plain number equal to -log10 of the molar concentration.

What value of pKi has been reported for the following molecule? c1cc2c3c(c1)c1c(n3CCO2)CCNCC1 8.37

For CCOc1ccccc1-c1cc(Cl)cc2cc3n(c12)CCNCC3 then? 6.95

* * *

target system: 5-hydroxytryptamine receptor 2C (Homo sapiens, UniProt P28335)
assay: Binding affinity of compound towards 5-hydroxytryptamine 2C receptor
reported metric: pKi
Expect pKi as a plain number equal to -log10 of the molar concentration.

What value of pKi has been reported for the following compound? C[C@H](N)Cn1ccc2ccc(F)cc21 8.40

* * *

target system: Serotonin 2 receptors; 5-HT2a & 5-HT2c (Homo sapiens) (UniProt P28223+P28335)
Sequence (P28223 whole entry, looked up, one chain of several): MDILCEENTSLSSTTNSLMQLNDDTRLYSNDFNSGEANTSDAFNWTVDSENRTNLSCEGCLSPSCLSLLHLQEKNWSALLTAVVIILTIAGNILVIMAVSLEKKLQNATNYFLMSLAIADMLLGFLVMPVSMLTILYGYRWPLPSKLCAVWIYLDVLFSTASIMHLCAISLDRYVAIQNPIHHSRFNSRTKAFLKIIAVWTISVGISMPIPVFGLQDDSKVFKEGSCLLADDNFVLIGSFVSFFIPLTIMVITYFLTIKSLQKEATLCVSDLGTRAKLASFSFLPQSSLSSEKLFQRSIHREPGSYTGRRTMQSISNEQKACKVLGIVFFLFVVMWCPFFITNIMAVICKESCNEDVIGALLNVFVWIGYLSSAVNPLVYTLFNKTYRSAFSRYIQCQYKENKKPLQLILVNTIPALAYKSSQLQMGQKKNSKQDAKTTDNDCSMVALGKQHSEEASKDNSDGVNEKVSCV
assay: Selectivity ratio of binding affinity of 5-hydroxytryptamine 2A receptor to that of 5-hydroxytryptamine 2C receptor.
Type: protein assay
Simple rule here: Selectivity ratio less than 3 is Fulfilled, otherwise Not fulfilled.

Before answering, review these 8 worked examples.
{"compound": "Fc1ccc(-c2cc(Cl)cc3c2N2CCNCCC2C3)cc1 (centres undefined)", "cat": "Fulfilled"}
{"compound": "O=C(c1c2n(c3ccccc13)CCNCC2)C(F)(F)F", "cat": "Fulfilled"}
{"compound": "FC(F)(F)c1ccccc1-c1cccc2c1N1CCNCCC1C2 (single isomer, unassigned; (-))", "cat": "Not fulfilled"}
{"compound": "N#Cc1c2n(c3ccccc13)CCNCC2", "cat": "Fulfilled"}
{"compound": "CCOc1ccccc1-c1cccc2c1N1CCNCCC1C2 (single isomer, unassigned; (+))", "cat": "Not fulfilled"}
{"compound": "CCOc1ccccc1-c1cccc2c1N1CCNCCC1C2 (single isomer, unassigned; (-))", "cat": "Not fulfilled"}
{"compound": "FC(F)(F)c1ccccc1-c1cccc2c1N1CCNCCC1C2 (single isomer, unassigned; (+))", "cat": "Fulfilled"}
{"compound": "Cc1ccccc1-c1cccc2c1N1CCNCCC1C2 (stereo in doubt; (-))", "cat": "Not fulfilled"}

Does the reported Selectivity ratio of CCOc1ccccc1-c1cc(Cl)cc2c1N1CCNCCC1C2 (single isomer, unassigned; (+)) stay below 3? Not fulfilled

Provenance of the data: ChEMBL document CHEMBL1136110
